PROCEDURE_TEXT: Preliminary assessment of in vivo pharmacokinetics in rats
CONDITIONS_USED: rat, plasma, oral, 20 mg/kg, intragastric 20 mg/kg; 6 h; individual animals 4-6; read-out: Plasma drug concentrations in rats
MEASUREMENT_TYPE: concentration at 6 h (ng/mL)
Just the number in ng/mL, nothing appended.

Using the record for CC(C)Oc1ccc(-c2nc(-c3ccc(CN4CC(C(=O)O)C4)c4ccccc34)no2)cc1C#N.Cl [Compound A1] , report its concentration at 6 h.
322

###

PROCEDURE_TEXT: Preliminary evaluation of pharmacokinetics in Beagle dogs
Assay type: in vivo
CONDITIONS_USED: Beagle, dog, plasma, po, 3 mg/kg, Beagle dogs; intragastric 3 mg/kg; mean; read-out: MRT0-∞
MEASUREMENT_TYPE: MRT inf
Give me the value, and tack the unit on after it.

Using the record for CC(C)Oc1ccc(-c2nc(-c3ccc(CN4CC(C(=O)O)C4)c4ccccc34)no2)cc1C#N.Cl [Compound A1] , report its MRT inf.
2.65 h
